# System: M17-TAU P301L cells
# PROCEDURE TEXT: TAU cytotoxicity assay: LDH leakage of retinoic acid incubated M17-TAU P301L cells
# Type: cell-based, human
# PARTICULARS: Homo sapiens, 168 h, reduction of LDH activity of retinoic acid incubated M17-TAU P301L cells, 7 days
Reported values of EC50 for individual entries
MEASURE: EC50 (nM)

O=C(NCCc1c[nH]c2ccc(Cl)cc12)C1CCN(c2ccc(Cl)c(F)c2)C1=O (stereo not shown) [Example D142] :: 561
COc1ccccc1N1CCC(C(=O)NCCc2c[nH]c3ccc(Cl)cc23)C1=O (stereo not shown) [Example D163] :: 1860
O=C(NCCc1c[nH]c2ccc(Cl)cc12)C1CCN(c2ccc(F)cc2)C1=O (stereo not shown) [Example D78] :: 691
O=C(NCCc1c[nH]c2ccc(Cl)cc12)c1cn(Cc2ccccc2)nn1 [Example D54] :: 173
